Each entry below carries its reported EC50.
Tested on: 48V54V82S
Design: species or system HIV-1
Settings: MT-4, 48V54V82S; read-out: Cell-based assay (MT-4) EC50/nM 48V54V82S
Output spec: scalar in nM, unitless text.

Sample records with EC50:
State the recorded EC50 for this entry: CCOP(=O)(COc1ccc(C[C@@H]2[C@H](O)[C@@H](O)[C@@H](Cc3ccccc3)N(Cc3cccc(N)c3)C(=O)N2Cc2cccc(N)c2)cc1)OCC [R=H, R1=Ph-mNH2, R2=OCh2PO3Et2]
146

State the recorded EC50 for this entry: CCOP(=O)(CCNC(=O)Oc1ccc(C[C@@H]2[C@H](O)[C@@H](O)[C@@H](Cc3ccc(OC)cc3)N(Cc3ccc(O)cc3)C(=O)N2Cc2ccc(O)cc2)cc1)OCC [R=OCH3, R1=Ph-pOH, R2=OCONH(CH2)2PO3Et2]
51

# context switch: different compound, same EC50
State the recorded EC50 for this entry: CCOC(=O)C(C)NP(=O)(COc1ccc(C[C@@H]2[C@H](O)[C@@H](O)[C@@H](Cc3ccccc3)N(Cc3ccccc3)C(=O)N2Cc2ccccc2)cc1)Oc1ccccc1 (stereo partly drawn) [R=H, R1=Ph, R2=Mono-Ala-Et]
1950

====

System: wild-type HIV-1 strain IIIB
Assay: microbe, parasite or virus in culture
Format: cell-based
Details: read-out: EC50
pEC50: −log10 of the molar value.
Property label: pEC50

Sample records with pEC50:
State the recorded pEC50 for this entry: CCC(OP(=O)(COc1ccc(CC(NC(=O)OC2COC3OCCC23)C(O)CN(CC(C)C)S(=O)(=O)c2ccc(OC)cc2)cc1)Oc1ccccc1)C(=O)OC(C)(C)C [drawing 659 R1=OPh R2=(S)Hba-tBu]
> 7.30

State the recorded pEC50 for this entry: CCOC(=O)C(C)OP(=O)(Cc1ccc(N(C)CC(NC(=O)OC2COC3OCCC23)C(O)CN(CC(C)C)S(=O)(=O)c2ccc(OC)cc2)cc1)Oc1ccccc1 (stereo not drawn)
> 7.30

# context switch: different compound, same pEC50
State the recorded pEC50 for this entry: COc1ccc(S(=O)(=O)N(CC(C)C)CC(O)C(CC2=CCN(CCP(=O)(O)OC(C)C(=O)O)CC2)NC(=O)OC2COC3OCCC23)cc1 (stereo not drawn)
< 5.30

====

Test system: wild-type HIV-1 strain IIIB
Test: microbe, parasite or virus in culture
Format: cell-based
Conditions: Human immunodeficiency virus 1, IIIB, MT2
Property label: EC50

State the recorded EC50 for this entry: CCOP(=O)(COc1ccc(S(=O)(=O)N(CC(C)C)CC(O)C(Cc2ccc(N)cc2)NC(=O)OC2COC3OCCC23)cc1)OCC (stereo not shown)
50 to 500 nM

====

Test system: WT HIV-1
Test: microbe, parasite or virus in culture
Format: cell-based
Conditions: MT-4, WT; read-out: Cell-based assay (MT-4) EC50/nM WT
Property label: EC50 (nM)
Output spec: scalar in nM, unitless text.

Sample records with EC50:
State the recorded EC50 for this entry: O=C1N(Cc2ccccc2)[C@H](Cc2ccccc2)[C@H](O)[C@@H](O)[C@@H](Cc2ccc(OCP(=O)(OCc3ccccc3)OCc3ccccc3)cc2)N1Cc1ccccc1
1770

State the recorded EC50 for this entry: CCOP(=O)(CNC(=O)Oc1ccc(C[C@@H]2[C@H](O)[C@@H](O)[C@@H](Cc3ccc(OC)cc3)N(Cc3cccc(N)c3)C(=O)N2Cc2cccc(N)c2)cc1)OCC [R=OCH3, R1=Ph-mNH2, R2=OCONH(CH2)PO3Et2]
58

State the recorded EC50 for this entry: CCOP(=O)(CCNC(=O)Oc1ccc(C[C@@H]2[C@H](O)[C@@H](O)[C@@H](Cc3ccc(OC)cc3)N(Cc3ccc(O)cc3)C(=O)N2Cc2ccc(O)cc2)cc1)OCC [R=OCH3, R1=Ph-pOH, R2=OCONH(CH2)2PO3Et2]
33

State the recorded EC50 for this entry: O=C1N(Cc2ccccc2)[C@H](Cc2ccccc2)[C@H](O)[C@@H](O)[C@@H](Cc2ccccc2)N1Cc1ccc2[nH]nc(O)c2c1
1230

# context switch: different molecule, same EC50
State the recorded EC50 for this entry: CCOP(=O)(COc1ccc(C[C@@H]2[C@H](O)[C@@H](O)[C@@H](Cc3ccccc3)N(Cc3cccc(N)c3)C(=O)N2Cc2cccc(N)c2)cc1)OCC [R=H, R1=Ph-mNH2, R2=OCh2PO3Et2]
65
